- TESTED_SYSTEM: UniProt Q13188
- Sequence (Q13188 whole entry): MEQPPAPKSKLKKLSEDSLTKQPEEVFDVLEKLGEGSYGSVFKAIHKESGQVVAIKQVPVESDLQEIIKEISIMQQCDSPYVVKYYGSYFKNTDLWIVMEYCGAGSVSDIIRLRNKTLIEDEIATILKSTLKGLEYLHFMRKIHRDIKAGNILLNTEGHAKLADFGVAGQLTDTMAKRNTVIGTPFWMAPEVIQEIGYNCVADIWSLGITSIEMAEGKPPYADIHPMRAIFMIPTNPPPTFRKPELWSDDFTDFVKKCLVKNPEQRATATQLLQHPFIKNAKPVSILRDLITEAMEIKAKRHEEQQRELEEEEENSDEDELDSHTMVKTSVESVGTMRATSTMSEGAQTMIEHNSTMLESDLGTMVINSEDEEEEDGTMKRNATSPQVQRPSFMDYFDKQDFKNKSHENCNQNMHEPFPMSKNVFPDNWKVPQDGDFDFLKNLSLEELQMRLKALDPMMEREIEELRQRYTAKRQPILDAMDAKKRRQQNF
- ASSAY_COMMENT: pIC50, kinobeads binding competition
- TEST_SETTINGS: cell material: Lysate mix
pIC50: recorded values

In [3]: df
Out[3]:
                                   compound  attribute_measured  data_value
0  C#CCNC(=O)c1cc(Nc2cc(C3CC3)[nH]n2)nc(N2CCN(Cc3ccc(S(=O)(=O)F)cc3)CC2)n1               pIC50        6.27

Which measured pIC50 value corresponds to CCNC(=O)c1cc(Nc2cc(C3CC3)[nH]n2)nc(N2CCN(Cc3ccc(S(=O)(=O)F)cc3)CC2)n1 ? 5.94

Which measured pIC50 value corresponds to C#CCNC(=O)c1cc(Nc2cc(C)[nH]n2)nc(N2CCN(Cc3ccc(S(=O)(=O)F)cc3)CC2)n1 ? 5.6

Which measured pIC50 value corresponds to Cc1cc(Nc2cc(C(=O)NCCNC(=O)OC3CC/C=C/CCC3)nc(N3CCN(Cc4ccc(S(=O)(=O)F)cc4)CC3)n2)n[nH]1 (stereo unspecified) ? < 4.52

Which measured pIC50 value corresponds to O=C(NCCNC(=O)c1cc(Nc2cc(C3CC3)[nH]n2)nc(N2CCN(Cc3ccc(S(=O)(=O)F)cc3)CC2)n1)OC1CC/C=C/CCC1 (stereo unspecified) ? < 4.52

Which measured pIC50 value corresponds to CCNC(=O)c1cc(Nc2cc(C)[nH]n2)nc(N2CCN(Cc3ccc(S(=O)(=O)F)cc3)CC2)n1 ? 5.64

----------
- TESTED_SYSTEM: LIMK2 (UniProt P53671)
- Sequence (P53671 whole entry, looked up): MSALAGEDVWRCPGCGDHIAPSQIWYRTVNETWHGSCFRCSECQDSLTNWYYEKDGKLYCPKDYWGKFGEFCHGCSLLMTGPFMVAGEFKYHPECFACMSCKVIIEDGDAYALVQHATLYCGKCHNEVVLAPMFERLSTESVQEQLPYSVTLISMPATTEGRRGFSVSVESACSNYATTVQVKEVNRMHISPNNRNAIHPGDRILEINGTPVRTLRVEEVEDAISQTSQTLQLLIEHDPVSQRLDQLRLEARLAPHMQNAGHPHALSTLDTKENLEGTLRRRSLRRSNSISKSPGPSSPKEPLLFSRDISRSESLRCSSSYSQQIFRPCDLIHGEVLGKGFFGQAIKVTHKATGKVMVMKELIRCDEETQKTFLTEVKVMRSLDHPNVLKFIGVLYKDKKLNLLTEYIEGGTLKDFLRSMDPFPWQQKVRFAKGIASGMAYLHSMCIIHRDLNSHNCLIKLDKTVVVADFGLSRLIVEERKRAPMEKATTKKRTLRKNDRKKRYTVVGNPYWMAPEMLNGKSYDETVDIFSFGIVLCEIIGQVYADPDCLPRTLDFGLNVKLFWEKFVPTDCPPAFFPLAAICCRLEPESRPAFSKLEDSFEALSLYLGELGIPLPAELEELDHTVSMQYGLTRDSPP
- ASSAY_COMMENT: pIC50, kinobeads binding competition
- TEST_SETTINGS: cell material: Lysate mix
pIC50: recorded values
Give the figure by itself; no unit, no explanation.

Please review the entries below; each comes with its answer.
In [3]: df
Out[3]:
                           smiles_structure  attribute_measured  data_value
0  CCNC(=O)c1cc(Nc2cc(C3CC3)[nH]n2)nc(N2CCN(Cc3ccc(S(=O)(=O)F)cc3)CC2)n1               pIC50        5.38
1  CCNC(=O)c1cc(Nc2cc(C)[nH]n2)nc(N2CCN(Cc3ccc(S(=O)(=O)F)cc3)CC2)n1               pIC50        4.62

Could you now look at the following molecule, please?
Which measured pIC50 value corresponds to C#CCNC(=O)c1cc(Nc2cc(C3CC3)[nH]n2)nc(N2CCN(Cc3ccc(S(=O)(=O)F)cc3)CC2)n1 ? 5.53

----------
- TESTED_SYSTEM: PIM2 (UniProt Q9P1W9)
- Sequence (Q9P1W9 whole entry, looked up): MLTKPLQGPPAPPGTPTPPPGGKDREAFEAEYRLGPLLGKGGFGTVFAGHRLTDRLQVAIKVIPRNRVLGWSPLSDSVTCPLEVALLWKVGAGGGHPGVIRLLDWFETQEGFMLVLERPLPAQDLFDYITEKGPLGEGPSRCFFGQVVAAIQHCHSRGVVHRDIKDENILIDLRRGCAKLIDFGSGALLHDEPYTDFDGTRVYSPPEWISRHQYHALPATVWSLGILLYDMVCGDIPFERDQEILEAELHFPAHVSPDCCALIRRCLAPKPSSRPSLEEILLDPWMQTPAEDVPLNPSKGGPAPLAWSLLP
- ASSAY_COMMENT: pIC50, kinobeads binding competition
- TEST_SETTINGS: cell material: Lysate mix
ATTRIBUTE_MEASURED: pIC50

Please review the entries below; each comes with its answer.
                                   molecule          tested_system  data_value
0  C#CCNC(=O)c1cc(Nc2cc(C3CC3)[nH]n2)nc(N2CCN(Cc3ccc(S(=O)(=O)F)cc3)CC2)n1  PIM2 (UniProt Q9P1W9)      < 4.52
1  CCNC(=O)c1cc(Nc2cc(C)[nH]n2)nc(N2CCN(Cc3ccc(S(=O)(=O)F)cc3)CC2)n1  PIM2 (UniProt Q9P1W9)      < 4.52
2  Cc1cc(Nc2cc(C(=O)NCCNC(=O)OC3CC/C=C/CCC3)nc(N3CCN(Cc4ccc(S(=O)(=O)F)cc4)CC3)n2)n[nH]1 (stereo unspecified)  PIM2 (UniProt Q9P1W9)      < 4.52
3  CCNC(=O)c1cc(Nc2cc(C3CC3)[nH]n2)nc(N2CCN(Cc3ccc(S(=O)(=O)F)cc3)CC2)n1  PIM2 (UniProt Q9P1W9)      < 4.52
4  O=C(NCCNC(=O)c1cc(Nc2cc(C3CC3)[nH]n2)nc(N2CCN(Cc3ccc(S(=O)(=O)F)cc3)CC2)n1)OC1CC/C=C/CCC1 (stereo unspecified)  PIM2 (UniProt Q9P1W9)      < 4.52

Could you now look at the following molecule, please?
Which measured pIC50 value corresponds to C#CCNC(=O)c1cc(Nc2cc(C)[nH]n2)nc(N2CCN(Cc3ccc(S(=O)(=O)F)cc3)CC2)n1 ? < 4.52
